- System: SK-MEL-2
- PROCEDURE_TEXT: Cytotoxicity against human SK-MEL-2 cells
- Assay type: functional
- APPLIED_CONDITIONS: read-out: ED50 (the source's name)
PROPERTY: EC50

Worked examples, 4 molecules total:
C[C@H](CC[C@@H](C)[C@H]1CC[C@H]2C3=CC(=O)[C@@]4(O)C[C@@H](O)CC[C@]4(C)[C@@]3(O)CC[C@]12C)[C@@H]1C[C@H]1C [TOPSENTISTEROL C1]	11.3 µg/mL
CC(C)[C@@H](C)/C=C/[C@@H](C)[C@H]1CC[C@@H]2[C@]1(C)CC[C@H]1[C@]23C=C[C@]2(CCCC[C@]12C)OO3	19.4 µg/mL
CO[C@@H]1C=C2[C@@H]3CC[C@H]([C@H](C)/C=C/[C@@H](C)C(C)C)[C@@]3(C)CC[C@]2(O)[C@@]2(C)CC[C@H](O)C[C@]12O [TOPSENTISTEROL C3]	11.5 µg/mL
CC(C)[C@H](C)/C=C/[C@@H](C)[C@H]1CCC2=C3[C@H](O)[C@@H]4O[C@@]45C[C@@H](O)CC[C@]5(C)[C@H]3CC[C@@]21C [TOPSENTISTEROL B5]	5.5 µg/mL

Consider the molecule `CC(C)C/C=C/[C@@H](C)[C@H]1CC[C@@H]2[C@]1(C)CC=C1[C@]23C=C[C@]2(CCCC[C@]12C)OO3` and give its recorded EC50.
5.2 µg/mL

Consider the molecule `CC(C)=C[C@@H](C)[C@H]1CC[C@@H]2[C@]1(C)CC[C@H]1[C@]23C=C[C@]2(CCCC[C@]12C)OO3` and give its recorded EC50.
25.9 µg/mL
